test system: HCT-116; experiment: In vitro cytotoxicity assay, HCT-116 human colon tumor; format: cell-based; details: HCT-116 human colon; two values per compound; four-fold serial dilution
Kindly supply the reported In vitro cytotoxicity IC50, HCT-116 values for the records listed here.
Respond with the bare value in µg/mL.

Data request, read-out In vitro cytotoxicity IC50, HCT-116, for COc1cc([C@@H]2c3cc4c(cc3[C@@H](O[C@@H]3O[C@@H]5CO[C@@H](C)O[C@H]5[C@H](O)[C@H]3O)[C@H]3COC(=O)[C@H]23)OCO4)cc(NCN2C(=O)CCC2=O)c1O [Example 13]
4.1

I am curious: what In vitro cytotoxicity IC50, HCT-116 value has been reported for COc1ccc(C=Nc2cc([C@@H]3c4cc5c(cc4[C@@H](O[C@@H]4O[C@@H]6CO[C@@H](C)O[C@H]6[C@H](O)[C@H]4O)[C@H]4COC(=O)[C@H]34)OCO5)cc(OC)c2O)cc1 [Example 20] ?
5.6

For the compound COc1cc([C@@H]2c3cc4c(cc3[C@@H](O[C@@H]3O[C@@H]5CO[C@@H](C)O[C@H]5[C@H](O)[C@H]3O)[C@H]3COC(=O)[C@H]23)OCO4)cc(N=Cc2ccco2)c1O [Example 18] , what In vitro cytotoxicity IC50, HCT-116 is on record?
18.4

Item under review: COc1cc([C@@H]2c3cc4c(cc3[C@@H](O[C@@H]3O[C@@H]5CO[C@@H](C)O[C@H]5[C@H](O)[C@H]3O)[C@H]3COC(=O)[C@H]23)OCO4)cc(N=Cc2ccsc2)c1O [Example 17] . Reported In vitro cytotoxicity IC50, HCT-116?
10.1

If you can, please state the reported In vitro cytotoxicity IC50, HCT-116 value of CC(=O)NC1=CC([C@@H]2c3cc4c(cc3[C@@H](O[C@@H]3O[C@@H]5CO[C@@H](C)O[C@H]5[C@H](O)[C@H]3O)[C@H]3COC(=O)[C@@H]32)OCO4)=CC(=O)C1=O [Example 28] .
68

Bench note: what In vitro cytotoxicity IC50, HCT-116 did COc1cc([C@@H]2c3cc4c(cc3[C@@H](O[C@@H]3O[C@@H]5CO[C@@H](C)O[C@H]5[C@H](O)[C@H]3O)[C@H]3COC(=O)[C@H]23)OCO4)cc(N=Cc2cccc([N+](=O)[O-])c2)c1O [Example 22] show?
13.3
